- STUDY SYSTEM: FimH (Escherichia coli)
- Sequence (P08191 22-300): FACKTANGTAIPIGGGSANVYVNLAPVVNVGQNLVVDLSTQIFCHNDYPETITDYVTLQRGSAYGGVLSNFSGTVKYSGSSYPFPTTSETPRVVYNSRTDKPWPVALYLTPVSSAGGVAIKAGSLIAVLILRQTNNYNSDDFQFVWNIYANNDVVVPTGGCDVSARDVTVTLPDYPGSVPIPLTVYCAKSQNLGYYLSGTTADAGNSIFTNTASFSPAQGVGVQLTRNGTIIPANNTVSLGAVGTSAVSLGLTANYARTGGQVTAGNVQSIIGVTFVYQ
- ASSAY REMARKS: cell-based
- Set-up: species or system uropathogenic E. coli (UPEC)
- ASSAY CONDITIONS: Table 1
Could you please report measured HAI Titer EC>90 for the items listed next?
Numbers only, in µM.

Worked examples, 3 compounds total:
1. COC(=O)c1cccc(-c2ccc(O[C@H]3O[C@H](CO)[C@@H](O)[C@H](O)[C@@H]3O)cc2)c1 [Compound 1] :: 1.00
2. CNC(=O)c1cc(C(=O)NC)cc(-c2ccc(O[C@H]3O[C@H](CO)[C@@H](O)[C@H](O)[C@@H]3O)cc2)c1 [Compound 3] :: 0.37
3. CNC(=O)c1cc(C(=O)NC)cc(-c2ccc(O[C@H]3O[C@H](CO)[C@@H](O)[C@H](O)[C@@H]3O)c(C)c2)c1 [Compound 8] :: 0.02

Next, consider the following compound.
Problem: Fill in: HAI Titer EC>90 of CNC(=O)c1cc(C(=O)NC)cc(-c2ccc(O[C@H]3O[C@H](CO)[C@@H](O)[C@H](O)[C@@H]3O)c(C(F)(F)F)c2)c1 [Compound 7] is ___
Solution: 0.01

---

- STUDY SYSTEM: FimH lectin domain (Escherichia coli, UniProt P08191)
- Sequence (P08191 22-179): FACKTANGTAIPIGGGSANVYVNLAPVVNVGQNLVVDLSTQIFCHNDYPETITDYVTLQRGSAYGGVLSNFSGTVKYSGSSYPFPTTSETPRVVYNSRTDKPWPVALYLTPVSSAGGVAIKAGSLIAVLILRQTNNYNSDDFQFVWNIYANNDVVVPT
- ASSAY REMARKS: Octet bio-layer interferometry affinity measurement
- Type: binding, uropathogenic E. coli (UPEC)
- ASSAY CONDITIONS: biolayer interferometry
QUANTITY NAME: Kd, in words

1. CNC(=O)c1cccc(-c2ccc(O[C@H]3O[C@H](CO)[C@@H](O)[C@H](O)[C@@H]3O)cc2)c1 :: picomolar range
2. COC(=O)c1cccc(-c2ccc(O[C@H]3O[C@H](CO)[C@@H](O)[C@H](O)[C@@H]3O)cc2)c1 :: picomolar range

---

- STUDY SYSTEM: UniProt P08191
- ASSAY REMARKS: cell-based
- Set-up: species or system uropathogenic E. coli (UPEC)
- ASSAY CONDITIONS: Table 4
QUANTITY NAME: HAI Titer EC>90 (µM)
One number for each entry, in µM.

Worked examples, 3 molecules total:
1. O=C(Nc1cccnc1)c1cccc(-c2ccc(O[C@H]3O[C@H](CO)[C@@H](O)[C@H](O)[C@@H]3O)cc2)c1 [Compound 10f] :: 0.375
2. COC(=O)c1cccc(-c2ccc(O[C@H]3O[C@H](CO)[C@@H](O)[C@H](O)[C@@H]3O)cc2)c1 :: 1.000
3. CNC(=O)c1cccc(-c2ccc(O[C@H]3O[C@H](CO)[C@@H](O)[C@H](O)[C@@H]3O)c(C(F)(F)F)c2)c1 :: 0.032

Problem: Fill in: HAI Titer EC>90 of CNC(=O)c1cc(C(=O)NC)cc(-c2ccc(O[C@H]3O[C@H](CO)[C@@H](O)[C@H](O)[C@@H]3O)cc2)c1 is ___
Solution: 0.375
